# measured-on: Sialic acid-binding Ig-like lectin 9 (Homo sapiens)
# method: Hs-Siglec9 ALPHAscreen SOP 20170721
# Set-up: scale not given: direction of the effect not stated beside the values
# condition-parameters: 10 µM
Recorded Percent Effect, one value per entry.
// units = %; emit number, no label

A selection of reference data follows.
- compound: "Cc1nn(C)c2cn(C(C)C(=O)NCc3cccnc3)nc12 (centres undefined)"
  reading: 5.87
- compound: "CC(C)c1noc(CN2CCC3(CCCO3)CCC2=O)n1 (centres undefined)"
  reading: -1.54
- compound: "O=C(O)c1ccc(F)c(S(=O)(=O)Nc2c(F)cccc2-n2cccn2)c1"
  reading: 12.6
- compound: "Cc1cc(CN2CCCC2Cn2cncn2)no1 (centres undefined)"
  reading: -10.5
- compound: "Cc1cc(=O)[nH]c(SCC(=O)N(C)CC2Cc3ccccc3CN2C)n1 (centres undefined)"
  reading: -6.16

Asked: Give the reported Percent Effect for this compound. Cc1cccc(-c2noc(CN3CC(n4cc(C)cn4)C3)n2)c1
Given back: 7.4

Asked: Let me know recorded Percent Effect for COc1cc(CNCc2ccnc(N3CCOCC3)c2)cc(Cl)c1OC , thanks.
Given back: 13.4

Asked: Give the reported Percent Effect for this compound. CCn1ccnc1CNCC1CCCN1c1cccnn1 (centres undefined)
Given back: 5.47

###

Items are presented alongside their recorded Percent Effect.
# measured-on: Proteasome subunit beta (Trypanosoma cruzi)
# method: Trypanosoma cruzi proteasome chymotrypsin-like activity (TcProtChymo) assay. Further: in the data most compounds retested in dose-response had high values.
# Format: functional
# Parameters: scale not given: direction of the effect not stated beside the values
# condition-parameters: 9.37 µM
Give the value, in units of %, as a plain number.

Example entries and their recorded answers appear below.
- compound: "Cc1cc(CNc2cc(Cl)ccc2Cl)no1"
  reading: 4.69
- compound: "O=C(Cc1cn2ccsc2n1)N1CCCC(n2cncn2)C1 (centres undefined)"
  reading: 13.9
- compound: "NC(=O)C1CCN(C(=O)c2cccc(CN3CCOCC3)c2)CC1"
  reading: 0.702

Asked: Report Percent Effect on Proteasome subunit beta (Trypanosoma cruzi) for this entry: COc1ccc(C)cc1C(C)NC(=O)NCCCn1cncn1 (centres undefined)
Given back: 13.5

Asked: Param request: Percent Effect | system Proteasome subunit beta (Trypanosoma cruzi) | item O=C(NCC1CC1)N1CCN(Cc2ccc3c(c2)OCCO3)CC1
Given back: 4.99

Asked: Report Percent Effect from Proteasome subunit beta (Trypanosoma cruzi) testing of Cc1cccc(C2(CNC(=O)CCN3C(=O)CCC3=O)CCCC2)c1
Given back: 3.36

###

# measured-on: Arginase-2, mitochondrial (Homo sapiens)
# method: in vitro enzyme assay to detect the production of urea directly proportional to the activity of Arginase II; further: in the data most compounds retested in dose-response had high values
# Assay type: functional
# Design: scale not given: direction of the effect not stated beside the values
# condition-parameters: 33.3 µM
experimental-endpoint: Percent Effect (%)
Give a bare numeral; the unit % is implied.

Some entries whose results are on file:
- compound: "O=C(C1=CCCCC1)N1CCC2(CC1)COC(COc1ccccn1)C2 (configuration not stated)"
  unit-abbreviation: "%"
  Percent Effect: -0.405
- compound: "Cc1nccn1-c1cc(CNC(=O)CCC2CCCO2)ccn1 (configuration not stated)"
  unit-abbreviation: "%"
  Percent Effect: 1.8
- compound: "Cn1ccc(C(=O)N2CCN(CCc3ccccc3)CC2)cc1=O"
  unit-abbreviation: "%"
  Percent Effect: 3.23
- compound: "Cc1cccc(OCCC(=O)N2CCCN(CC(N)=O)CC2)c1C"
  unit-abbreviation: "%"
  Percent Effect: -3.42
- compound: "CCOC(=O)CN1CCC2(CC1)CC(=O)c1ccc(OC)cc1O2"
  unit-abbreviation: "%"
  Percent Effect: -4.11

Asked: Please supply the value of reported Percent Effect for the item CNC(=O)CN(C)c1nc(-c2ccncc2)nc2c1CCN(C(C)=O)C2
Given back: 2.45

Asked: Give the measured Percent Effect for COC(=O)CN1CC(c2nc(Cc3ccccc3)no2)C1
Given back: 2.27

Asked: Identify measured Percent Effect corresponding to CNC(=O)Cn1cc(C#N)c(=O)c2cc(Br)ccc21
Given back: 7.29

Asked: Output measured Percent Effect for this item: Cc1cnccc1CN1C[C@@H](O)[C@H](Oc2ccccc2)C1
Given back: 3.02

Asked: Return value of Percent Effect for input Cc1csc(N2CCN(CC(=O)Nc3c(C)n[nH]c3C)CC2C)n1 (configuration not stated) , no commentary.
Given back: -3.51

Asked: State, in one line, measured Percent Effect of CC(O)CN1CCN(C(=O)c2ccc(Br)o2)CC1 (configuration not stated)
Given back: 3.45

Asked: Identify the reported Percent Effect for the following entry. Cc1cc(C)c2c(OCC(=O)NC(C)C)nn(C)c2n1
Given back: 11.4
